Reported IC50 values follow for various compounds
- TGT: Genome polyprotein (dengue virus type 2)
- Sequence (P29990 2492-3391 limits assumed): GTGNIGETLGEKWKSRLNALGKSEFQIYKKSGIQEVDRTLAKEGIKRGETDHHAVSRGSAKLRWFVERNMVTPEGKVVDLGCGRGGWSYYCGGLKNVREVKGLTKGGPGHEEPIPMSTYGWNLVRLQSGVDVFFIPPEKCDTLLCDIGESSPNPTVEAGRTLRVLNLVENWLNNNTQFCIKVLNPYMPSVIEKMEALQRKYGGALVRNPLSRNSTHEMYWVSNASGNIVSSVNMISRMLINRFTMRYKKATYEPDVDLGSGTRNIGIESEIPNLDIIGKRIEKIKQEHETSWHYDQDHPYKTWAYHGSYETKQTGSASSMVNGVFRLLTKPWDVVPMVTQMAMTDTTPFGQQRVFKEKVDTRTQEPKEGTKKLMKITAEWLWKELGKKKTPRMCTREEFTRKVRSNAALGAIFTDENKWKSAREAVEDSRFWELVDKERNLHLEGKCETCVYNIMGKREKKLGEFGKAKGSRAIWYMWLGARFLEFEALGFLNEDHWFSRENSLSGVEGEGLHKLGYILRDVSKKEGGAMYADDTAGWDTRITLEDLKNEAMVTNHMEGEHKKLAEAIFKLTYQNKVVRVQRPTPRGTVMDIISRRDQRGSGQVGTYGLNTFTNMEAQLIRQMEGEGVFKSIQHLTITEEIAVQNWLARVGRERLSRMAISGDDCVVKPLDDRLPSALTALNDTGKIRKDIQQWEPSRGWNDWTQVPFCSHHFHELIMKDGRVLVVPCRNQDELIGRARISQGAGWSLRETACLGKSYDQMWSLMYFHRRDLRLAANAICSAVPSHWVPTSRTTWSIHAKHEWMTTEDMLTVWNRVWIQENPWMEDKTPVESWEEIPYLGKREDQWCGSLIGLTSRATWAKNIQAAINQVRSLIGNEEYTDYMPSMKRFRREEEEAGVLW
- PROCEDURE DETAILS: Dengue-2 NS5 methyltransferase inhibitors, primary screen, biochemical, confirmation dose response (AID 588689)
- Format: functional
The source made the active and inactive calls. No rule for the calls is given here.
PROPERTY NAME: IC50

O=C(CCN1C(=O)/C(=C/c2ccccc2Cl)SC1=S)Nc1ccccc1C(=O)O : 77.7 µM (active)
CC1COCC(C)N1C1=C(Cl)C(=O)c2ccccc2C1=O (stereo unspecified) : 16.2 µM (active)
Cc1nn(-c2ccc(F)cc2)c(O)c1C(c1cccc(O)c1)c1c(C)[nH]n(-c2ccc(F)cc2)c1=O (stereo unspecified) : 55.5 µM (active)
O=c1cc(-c2ccc(O)cc2)oc2c(O)c(O)c(O)c(O)c12 : > 100 µM (active)
COC(=O)[C@@H]1[C@@H](C#N)C2(c3ccccc3-c3ccccc32)N(c2ccc(Cl)cc2)N1C#N : 92.4 µM (active)
O=S(=O)(O)c1cccc2c(N=Nc3ccc(O)c4ncccc34)cccc12 : 34.8 µM (active)
